Assign Semi-quantitative analysis of proteins binding to different plaque particles: Tau to each entry below.
Test system: Tau plaque particles
Test: Mass spectroscopy proteomics, semi-quantitative binding affinity of serum proteins (plaqueproteome, Table 2)
Parameters: species or system human
Settings: higher number = stronger affinity
Field format: numeric only.

**Q:** Field request: Semi-quantitative analysis of proteins binding to different plaque particles: Tau | item: Protein AMBP (protein) GPVPTPPDNIQVQENFNISRIYGKWYNLAIGSTCPWLKKIMDRMTVSTLVLGEGATEAEISMTSTRWRKGVCEETSGAYEKTDTDGKFLYHKSKWNITMESYVVHTNYDEYAIFLTKKFSRHHGPTITAKLYGRAPQLRETLLQDFRVVAQGVGIPEDSIFTMADRGECVPGEQEPEPILIPRVRRAVLPQEEEGSGGGQLVTEVTKKEDSCQLGYSAGPCMGMTSRYFYNGTSMACETFQYGGCMGNGNNFVTEKECLQTCRTVAACNLPIVRGPCRAFIQLWAFDAVKGKCVLFPYGGCQGNGNKFYSEKECREYCGVPGDGDEELLRFSN
**A:** 10

**Q:** Then what about the molecule Beta-2-glycoprotein 1 (protein) GRTCPKPDDLPFSTVVPLKTFYEPGEEITYSCKPGYVSRGGMRKFICPLTGLWPINTLKCTPRVCPFAGILENGAVRYTTFEYPNTISFSCNTGFYLNGADSAKCTEEGKWSPELPVCAPIICPPPSIPTFATLRVYKPSAGNNSLYRDTAVFECLPQHAMFGNDTITCTTHGNWTKLPECREVKCPFPSRPDNGFVNYPAKPTLYYKDKATFGCHDGYSLDGPEEIECTKLGNWSAMPSCKASCKVPVKKATVVYQGERVKIQEKFKNGMLHGDKVSFFCKNKEKKCSYTEDAQCIDGTIEVPKCFKEHSSLAFWKTDASDVKPC ?
**A:** 5

**Q:** Do the same for Ig lambda chain V-III region LOI (protein) VTSYVLTQPPSVSVAPGQTARITCGGNNIGSKSVHWYQQKPGQAPVLVVYDDSDRPSGIPERFSGSNSGNTATLTISRVEAGDEADYYCQVWDSSSDHPT please
**A:** 1

**Q:** Same read-out for Complement factor H-related protein 1 (protein) EATFCDFPKINHGILYDEEKYKPFSQVPTGEVFYYSCEYNFVSPSKSFWTRITCTEEGWSPTPKCLRLCFFPFVENGHSESSGQTHLEGDTVQIICNTGYRLQNNENNISCVERGWSTPPKCRSTDTSCVNPPTVQNAHILSRQMSKYPSGERVRYECRSPYEMFGDEEVMCLNGNWTEPPQCKDSTGKCGPPPPIDNGDITSFPLSVYAPASSVEYQCQNLYQLEGNKRITCRNGQWSEPPKCLHPCVISREIMENYNIALRWTAKQKLYLRTGESAEFVCKRGYRLSSRSHTLRTTCWDGKLEYPTCAKR ?
**A:** 1

**Q:** Try this molecule next: Histone H1.3 (protein) SETAPLAPTIPAPAEKTPVKKKAKKAGATAGKRKASGPPVSELITKAVAASKERSGVSLAALKKALAAAGYDVEKNNSRIKLGLKSLVSKGTLVQTKGTGASGSFKLNKKAASGEGKPKAKKAGAAKPRKPAGAAKKPKKVAGAATPKKSIKKTPKKVKKPATAAGTKKVAKSAKKVKTPQPKKAAKSPAKAKAPKPKAAKPKSGKPKVTKAKKAAPKKK
**A:** 0
